Kindly state cytotoxicity at 70.5 h for each of the entries shown.
- Experiment Notes: Human HepG2 cell viability assay in 384 well format
- Assay type: toxicity, cell-based
- Set-up: dose 125 nL, time 70.5 hour; concentration not given beside the values
- Experimental Parameters: HepG2 cells, read-out: Inhibition
Numbers only, in %.

Below, 5 molecules whose answers are already recorded.
>>> print(df.to_string())
                                   molecule  measurement_unit    val
0   CS(=O)(=O)N[C@@H]1CN(Cc2ccccc2)C[C@H]1O                 %  -5.89
1  COc1ccc2c(c1)OC1(CCN(Cc3cccc(C)c3)CC1)CC2=O                 %  -2.19
2  Cn1cc(C2CCCN2CCCn2c(=O)oc3ccccc32)cn1 (stereo unspecified)                 %   12.6
3  Cc1nn(C)c(C)c1C(=O)N1CCN(C(=O)CC2CCCCC2)CC1                 %   11.5
4  CSCCC1c2nc[nH]c2CCN1Cc1cc(Cl)ccc1O (stereo unspecified)                 %  -5.87

What does the data say about its cytotoxicity at 70.5 h? Entry: COc1ccc(C(C)n2ccnc2-c2cc3n(n2)CCCNC3)cc1F (stereo unspecified)
-0.853
